Tested target: GABA-A receptor; anion channel
Assay info: Displacement of [3H]Ro-151788 from GABA-A benzodiazepine receptor of bovine brain membranes
hey, just use MET if measured Ki is less than 60 nM, otherwise NOT MET

Reference set (3 entries):
1. [O-][n+]1nc2c(-c3ccsc3)cnn2c2cc(Cl)ccc21 | MET
2. CCOC(=O)c1cnn2c1n[n+]([O-])c1ccc(Cl)cc12 | MET
3. [O-][n+]1nc2c(-c3cccs3)cnn2c2cc(Cl)ccc21 | MET

Confirm or reject: Ki of O=CNC(=O)c1cnn2c1n[n+]([O-])c1ccc(Cl)cc12 lies strictly below 60 nM
NOT MET

----------
Tested target: GABA-A receptor; anion channel (Bos taurus) (UniProt P10063+P08220+P20237+P08219+P10064+P22300)
Assay info: The GABA ratio (GR) = IC50 compound + 10 uM GABA, performed in five independent experiments was calculated for the compound.
Type: protein-complex assay
Each entry below lists one item and its recorded GR value.
API doc: respond with a numeric literal and nothing else, no unit.

Param item = CCOC(=O)c1cnn2c1n[n+]([O-])c1ccc(Cl)cc12 ; retrieve measured GR.
1.91

----------
Tested target: GABA-A receptor; anion channel (Bos taurus) (UniProt P10063+P08220+P20237+P08219+P10064+P22300)
Assay info: Percentage inhibition of [3H]Ro-151788 binding to GABA-A benzodiazepine receptor in bovine brain membrane at 10 uM
Assay type: cell membranes
Measure: inhibition (%)
Numbers only here, please. The scale is %.

Solved entries (count: 5):
1. [O-][n+]1nc2c(-c3ccsc3)cnn2c2cc(Cl)ccc21 | 100
2. CN(C)/C=N/C(=O)c1cnn2c1n[n+]([O-])c1ccc(Cl)cc12 | 48.9
3. [O-][n+]1nc2c(-n3cccc3)cnn2c2cc(Cl)ccc21 | 87.5
4. Cc1n[nH]c(-c2cnn3c2n[n+]([O-])c2ccc(Cl)cc23)n1 | 15.2
5. C/C(=N\C(=O)c1cnn2c1n[n+]([O-])c1ccc(Cl)cc12)N(C)C | 58.5

Param item = [O-][n+]1nc2c(-c3cccs3)cnn2c2cc(Cl)ccc21 ; retrieve measured inhibition.
82

Param item = [O-][n+]1nc2c(-c3cnoc3)cnn2c2cc(Cl)ccc21 ; retrieve measured inhibition.
66

----------
Tested target: GABA-A receptor; anion channel (Bos taurus) (UniProt P10063+P08220+P20237+P08219+P10064+P22300)
Assay info: The GABA ratio (GR) = IC50 compound + 10 uM GABA, performed in five independent experiments was calculated for the compound.
Format: protein-complex assay
Measure: GR
API doc: respond with a numeric literal and nothing else, no unit.

1) [O-][n+]1nc2c(-n3cccc3)cnn2c2cc(Cl)ccc21 | 1.24
2) CN1C(=O)CN=C(c2ccccc2)c2cc(Cl)ccc21 | 1.5

Param item = [O-][n+]1nc2c(-c3cccs3)cnn2c2cc(Cl)ccc21 ; retrieve measured GR.
1.54

Param item = [O-][n+]1nc2c(-c3ccsc3)cnn2c2cc(Cl)ccc21 ; retrieve measured GR.
1.23
